Source: PubChem BioAssay (NCI)

test system: SK-OV-3 ovarian; assay: NCI-60 one-dose screen, 48 h (100 = growth as untreated, 0 = no growth, -100 = all killed); details: 10 µM
About 83,000 compounds went through this panel and 20% of them were active in at least one assay; those are over-represented in the sample as a whole.
Measured Metric: growth (%)

- Compound: "O=C1Nc2ccc(Cl)cc2/C1=C\\c1c(-c2ccc(Cl)cc2)nc2sc(C3CC3)nn12"
  Test System: "SK-OV-3 ovarian"
  Numeric Readout: 39.2
- Compound: "CC(=O)N1C/C(=C/c2ccc(Cl)cc2)C(=O)/C(=C/c2ccc(Cl)cc2)C1"
  Test System: "SK-OV-3 ovarian"
  Numeric Readout: -10.9
- Compound: "CCCCC(CCCCCC(CCCC)NCc1ccc2c(c1)OCO2)NCc1ccc2c(c1)OCO2 (stereo not given)"
  Test System: "SK-OV-3 ovarian"
  Numeric Readout: -100
- Compound: "Cc1ncc(-c2ccoc2)c(NC2CCCCCC2)n1"
  Test System: "SK-OV-3 ovarian"
  Numeric Readout: 93.8
- Compound: "COc1cc(/C=C/C(=O)c2ccc(Cl)cc2)ccc1OS(=O)(=O)c1ccc(C)cc1"
  Test System: "SK-OV-3 ovarian"
  Numeric Readout: 96.8
